- System: E31 (patient-derived glioblastoma stem cells of proneural subtype);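 further: cell Painting imaging in 384-well plates, CellProfiler features reduced to at least 20 principal components, Euclidean distance versus same-plate DMSO vehicle wells (0.1% v/v), median over six images per well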
- Method Description: phenotypic distance (Euclidean, principal components) from DMSO controls (arbitrary units); higher = stronger morphological change
- Condition Parameters: 111.1 nM; exposure time: 72 h
Where a name gives a salt, the structure may show the parent alone.
Parameter: phenotypic distance

{"Compound": "CC[C@@]1(O)C(=O)OCc2c1cc1n(c2=O)Cc2cc3c(CN(C)C)c(O)ccc3nc2-1", "Value": 3.38}
{"Compound": "CC(=O)CC(c1ccc([N+](=O)[O-])cc1)c1c(O)c2ccccc2oc1=O (stereo unspecified)", "Value": 0.701}
{"Compound": "Clc1ccc(C(Cn2ccnc2)OCc2ccsc2Cl)c(Cl)c1 (stereo unspecified)", "Value": 0.611}
{"Compound": "CCCCC(CC)CNC(=N)NC(=N)NCCCCCCNC(=N)NC(=N)NCC(CC)CCCC (stereo unspecified) [Alexidine dihydrochloride]", "Value": 0.884}
{"Compound": "Nc1nc(=O)c2nc(CNc3ccc(C(=O)N[C@@H](CCC(=O)O)C(=O)O)cc3)cnc2[nH]1", "Value": 0.408}
{"Compound": "OC(c1cc(C(F)(F)F)nc2c(C(F)(F)F)cccc12)C1CCCCN1 (stereo unspecified) [Mefloquine hydrochloride]", "Value": 0.539}
{"Compound": "C#C[C@]1(O)CC[C@H]2[C@@H]3CCC4=CCCC[C@@H]4[C@H]3CC[C@@]21C", "Value": 0.989}
{"Compound": "N=C(NCCCCCCNC(=N)NC(=N)Nc1ccc(Cl)cc1)NC(=N)Nc1ccc(Cl)cc1", "Value": 0.944}
{"Compound": "Cc1ccc(/C=N/NC(=O)c2n[nH]c3c2CCCC3)cc1", "Value": 2.14}
{"Compound": "CC(C)C(=O)OCC(=O)[C@@]12O[C@H](C3CCCCC3)O[C@@H]1C[C@H]1[C@@H]3CCC4=CC(=O)C=C[C@]4(C)[C@H]3[C@@H](O)C[C@@]12C [Ciclesonide]", "Value": 3.03}
{"Compound": "Cc1ccc(C(=O)N(CCCN)[C@@H](c2oc3cc(Cl)ccc3c(=O)c2Cc2ccccc2)C(C)C)cc1", "Value": 3.73}
{"Compound": "CCC(=O)OCC(=O)[C@@]1(OC(=O)CC)[C@H](C)C[C@H]2[C@H]3[C@H]([C@@H](O)C[C@@]21C)[C@@]1(C)C=CC(=O)C=C1C[C@H]3Cl [Alclometasone dipropionate]", "Value": 3.84}
{"Compound": "CNCCc1ccccn1 [Betahistine mesylate]", "Value": 0.749}
{"Compound": "C=CC(=O)Nc1cccc(Oc2nc(Nc3ccc(N4CCN(C)CC4)cc3)nc3ccsc23)c1", "Value": 1.36}
{"Compound": "CC[C@]1(O)C[C@@H]2CN(CCc3c([nH]c4ccccc34)[C@@](C(=O)OC)(c3cc4c(cc3OC)N(C)[C@H]3[C@@](O)(C(=O)OC)[C@H](OC(C)=O)[C@]5(CC)C=CCN6CC[C@]43[C@@H]65)C2)C1 [Vinblastine sulfate]", "Value": 10.7}
{"Compound": "C=CC(=O)Nc1cc(Nc2nccc(-c3cn(C)c4ccccc34)n2)c(OC)cc1N(C)CCN(C)C [Osimertinib mesylate]", "Value": 0.652}
{"Compound": "CC(C)C[C@H]1C(=O)N2CCC[C@H]2[C@]2(O)O[C@](NC(=O)[C@@H]3C=C4c5cccc6[nH]c(Br)c(c56)C[C@H]4N(C)C3)(C(C)C)C(=O)N12 [Bromocryptine mesylate]", "Value": 0.404}
{"Compound": "COc1cc2c(c(OC)c1OC)-c1ccc(OC)c(=O)cc1[C@@H](NC(C)=O)CC2", "Value": 12.2}
{"Compound": "Nc1ccn([C@@H]2O[C@H](CO)[C@@H](O)[C@@H]2O)c(=O)n1", "Value": 3.19}
{"Compound": "CN(C(=O)CN(CCO)CC(=O)N(C)C(C)(C)Cc1ccccc1)C(C)(C)Cc1ccccc1", "Value": 0.664}
{"Compound": "Cc1ncc(CO)c(CO)c1O [Pyridoxine hydrochloride]", "Value": 1.06}

Origin of values: the supplement of paper PMC13207355
